Some compounds, each annotated with its measured Kinetic_solubility.
# testName: Kinetic solubility of the compound at 200 uM incubated for 24 hrs at pH 2 by HPLC/UV analysis
# Type: physicochemical
# conditionDescription: buffer, pH 2, 24 h
property: Kinetic_solubility (µg/mL)

                             chemicalstring  unitstring  comparisonsymbol  endpointvalue
0  Cc1ccc2nc(-c3ccccn3)c(Nc3ccc4c(c3)OCCO4)n2c1       µg/mL                 =             72
1  Clc1ccc2nc(-c3ccccn3)c(Nc3ccc4c(c3)OCCO4)n2c1       µg/mL                 >             76
2  Cc1ccn2c(NC3CCCC3)c(-c3ccc(N(C)C)cc3)nc2c1       µg/mL                 =             67
3   Cc1ccn2c(Nc3ccc(F)cc3)c(-c3ccccn3)nc2c1       µg/mL                 =             73
4  COc1ccn2c(Nc3ccc(F)cn3)c(-c3ccccn3)nc2c1       µg/mL                 >             76

----------
Reported Kinetic_solubility is given for each of the following compounds.
# testName: Kinetic solubility of the compound at 200 uM incubated for 24 hrs at pH 7.4 by HPLC/UV analysis
# Assay type: physicochemical
# conditionDescription: buffer, pH 7.4, 24 h
property: Kinetic_solubility

                             chemicalstring            property  endpointvalue
0  Clc1ccc2nc(-c3ccccn3)c(Nc3ccc4c(c3)OCCO4)n2c1  Kinetic_solubility    < 0.5 µg/mL
1   Cc1ccn2c(Nc3ccc(F)cc3)c(-c3ccccn3)nc2c1  Kinetic_solubility    < 0.5 µg/mL
2  COc1ccn2c(Nc3ccc(F)cn3)c(-c3ccccn3)nc2c1  Kinetic_solubility     > 76 µg/mL
3  Cc1ccn2c(NC3CCCC3)c(-c3ccc(N(C)C)cc3)nc2c1  Kinetic_solubility    < 0.5 µg/mL
4  Cc1ccc2nc(-c3ccccn3)c(Nc3ccc4c(c3)OCCO4)n2c1  Kinetic_solubility        8 µg/mL

The origin of these recorded values is ChEMBL document CHEMBL4732019.
